The origin of these recorded values is PubChem BioAssay (NCI).

test system: T-47D breast; assay: NCI tumour cell line growth inhibition, 48 h; in the data active = GI50 below about 0.43 µM; inactive = the rest
Please reply with one of these outcomes: active, inactive

Task: Write down the call the test reported for this compound. Item: "COc1cnc2c(c1)C(=O)c1c-2n(CCCN2CCCC2)c(=O)c2cc(F)ccc12"
Output: active

Task: Write down the call the test reported for this compound. Item: CCC1CCc2nc3sc(C(=O)Nc4ccccc4C)c(N)c3cc2C1 (stereo unspecified)
Output: inactive

Task: Write down the call the test reported for this compound. Item: "CCOC(=O)c1cc2c(n1Cc1ccccc1)-c1oncc1CC2"
Output: inactive

Task: Write down the call the test reported for this compound. Item: "COc1cc2cc(c1Cl)N(C)C(=O)C[C@H](OC(=O)[C@H](C)N(C)C(C)=O)[C@]1(C)O[C@H]1[C@H](C)[C@@H]1C[C@@](O)(NC(=O)O1)[C@H](OC)C=C/C=C(\C)C2"
Output: active

Task: Write down the call the test reported for this compound. Item: "CC(=O)[O][Hg][c]1ccccc1"
Output: active

Task: Write down the call the test reported for this compound. Item: "COc1ccc(-c2cc(-c3cc(OC)c(OC)c(OC)c3)c(C#N)c(N3CCOCC3)n2)cc1O"
Output: inactive

Task: Write down the call the test reported for this compound. Item: "CCCCn1sc(=O)n(Cc2ccc(CNC(=O)OCc3ccc4c(Br)cc(Br)c(O)c4n3)cc2)c1=O"
Output: inactive

Task: Write down the call the test reported for this compound. Item: "COc1ccc(C(=O)c2cc3c(N)c(C(=O)Nc4cccc(Cl)c4C)sc3nc2C)cc1"
Output: active

Task: Write down the call the test reported for this compound. Item: CCCCCCCCCCCCOC1C(CNC(=O)C2OC3OC(C)(C)OC3C2NC(=O)CN2CCCCCC2)OC2OC(C)(C)OC21 (stereo unspecified)
Output: inactive

Task: Write down the call the test reported for this compound. Item: O=C(O)C1(Cc2cccc(Nc3nccs3)n2)CCC(Oc2cccc(Cl)c2F)CC1 (stereo unspecified)
Output: inactive

Task: Write down the call the test reported for this compound. Item: "C#Cc1cccc(Nc2nc3ccc([N+](=O)[O-])cc3nc2Nc2cccc(C#C)c2)c1"
Output: active

Task: Write down the call the test reported for this compound. Item: "COc1ccc(Cn2cc3c(c2-c2cc(OC)c(OC)c(OC)c2)CCc2cnoc2-3)cc1[N+](=O)[O-]"
Output: inactive

Task: Write down the call the test reported for this compound. Item: "Cc1nc(N)sc1C(=O)Nc1cc(C(=O)NCCCN(C)C)n(C)c1"
Output: inactive

Task: Write down the call the test reported for this compound. Item: "Nc1c(C(=O)Nc2ccccc2F)sc2nc3c(cc12)C(=O)CCC3"
Output: inactive

Task: Write down the call the test reported for this compound. Item: C[C@H]1C(Oc2ccc(O)cc2)OC2OC3(C)CCC4[C@H](C)CCC1C24OO3 (stereo partly specified)
Output: inactive

Task: Write down the call the test reported for this compound. Item: CCN1C(=O)N(c2ccccc2)C2NN=c3s/c(=C4\C(=O)N(C(C)C)c5ccccc54)c(=O)n3C21 (stereo unspecified)
Output: inactive

* * *

test system: NCI-H460 lung; assay: NCI tumour cell line growth inhibition, 48 h
endpoint: TGI

Task: Identify measured TGI corresponding to "CNCCCNc1nc2ccccc2c2c(=O)c3cc(Cl)ccc3sc12"
Output: 3.06 µM

Task: Identify measured TGI corresponding to "CS(=O)(=O)CCNCc1ccc(-c2ccc3ncnc(Nc4ccc(OCc5ccccc5)c(Cl)c4)c3c2)o1"
Output: > 17.8 µM

Task: Identify measured TGI corresponding to CC(C)NCCC(O)c1cc2ccccc2o1 (stereo unspecified)
Output: > 100 µM

Task: Identify measured TGI corresponding to "Cc1ccc(O)c(C(=O)CCCC(=O)c2cc(C)ccc2O)c1"
Output: > 100 µM

Task: Identify measured TGI corresponding to CCC[CH2][Sn]([CH2]CCC)([O]C(=O)C1CCC(=O)N1)[O]C(=O)C1CCC(=O)N1 (stereo unspecified)
Output: 2.53 µM

Task: Identify measured TGI corresponding to "O=[N+]([O-])c1ccc2ncccc2c1Cl"
Output: 16.6 µM

Task: Identify measured TGI corresponding to "CN(C)c1ccc(/C=N\N2C(=O)c3ccccc3C2=O)cc1"
Output: > 100 µM

Task: Identify measured TGI corresponding to "COc1ccc(CNc2nc3c(NC(C)=O)cc(C(F)(F)F)cc3nc2-c2ccccc2)cc1OC"
Output: > 100 µM

Task: Identify measured TGI corresponding to "O=C(/C=C/c1ccc(O)c(O)c1O)OCCc1ccccc1"
Output: 42.7 µM

Task: Identify measured TGI corresponding to "COc1cc(/C=C/c2cc(/C=C/c3ccc(O)c(OC)c3)oc(=O)c2)ccc1O"
Output: 7.63 µM

Task: Identify measured TGI corresponding to O=C(CC(=O)C1CCOC1=O)C(=O)Nc1ccc(Cl)cc1Cl (stereo unspecified)
Output: > 100 µM
